Assay: small-molecule microarray binders of probe aCHRDL2, primary screen, biochemical, biotinylated probe, 635/667 nm fluorescence (AID 1100)
Settings: higher = more signal
Quick list: composite z-score per entry.

Molecule: COc1ccccc1CN1C(=O)c2ccccc2[C@@]2(Cc3ccccc3N(CC(C)C)C2=O)[C@@H]1c1ccc(CO)cc1
composite z-score: 0.124
//
Molecule: CC1(C)[C@@H]2CC(C(O)C3C=CC4C(=O)N(c5ccccc5)C(=O)C4N3Nc3ccc([N+](=O)[O-])cc3)=C[C@H]1C2 (some centres undefined)
composite z-score: 0.648
//
Molecule: C=CC1(C(=O)OC)CC=C(C(=O)OC)CC1 (centres undefined)
composite z-score: -0.425

Supply measured composite z-score of COCCOC(=O)N1C(=O)[C@@]2(c3cc(C#CCCO)ccc31)[C@H](C(=O)N1CCCCCCC1)[C@H]1C(=O)O[C@H](c3ccccc3)[C@H](c3ccccc3)N1[C@@H]2c1ccc(OCCO)cc1 in your reply.
1.49

* * *

Below is a list of entries, each paired with its recorded composite z-score value.
Assay: compound binding in COS7 lysate, probe aLAP1, primary screen, cell lysate, small-molecule microarray (AID 1124);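 also: lysate comes from COS7 cells expressing LAP1 and is applied at 0.3 µg/mL; score merges spot fluorescence near 667 nm with signal-to-noise over triplicate slides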
Settings: probe aLAP1, fluorescence, higher = more signal
# output: bare number, no unit

Consider the worked cases shown below.
Compound: COc1cc(Br)cc(C(O)C2C=CC3C(=O)N(C)C(=O)C3N2N2CCCCC2)c1OC (configuration not stated)
Recorded Value: 0.112
//
Compound: O=C(NCCO)C1=C[C@H](Oc2ccccc2I)[C@@H](O)[C@H](N(Cc2ccco2)C(=O)Cc2ccccc2)C1
Recorded Value: -0.0107
//
Compound: CCOC(=O)C[C@H]1[C@H](OC(=O)c2ccc(C(=O)c3ccccc3)cc2)[C@@H](NC(=O)CC(C)C)c2cc(OCCCO)ccc2N1C(=O)c1ccc2ccccc2n1
Recorded Value: 0.323

Please give the documented composite z-score of C=CCNC(=O)[C@H]1[C@@H]2C(=O)O[C@@H](c3ccccc3)[C@@H](c3ccccc3)N2[C@@H](c2ccccc2OCCO)[C@]12C(=O)Nc1ccc(C#CCCO)cc12
0.0894

Kindly indicate its recorded composite z-score. Item: O=C1C2C=CC(C(O)c3cc(C(F)(F)F)cc(C(F)(F)F)c3)N(n3cnnc3)C2C(=O)N1Cc1ccccc1 (configuration not stated)
-0.0088

Fill in reported composite z-score for this entry: COC(=O)[C@@]1(Cc2ccc(OC)cc2)[C@H]2c3cc(C(=O)N4CCCC4)n(Cc4ccc(C)c(F)c4F)c3C[C@H]2CN1C(=O)c1ccccc1
0.345

* * *

Recorded z-score for the following compounds
Assay: MM1S cell viability effects, profiling panel, calcein-AM fluorescence, 48 h, basal (AID 1165);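 also: viability of MM1S multiple myeloma cells under basal unstimulated conditions; test concentration not given here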
Details: higher = more signal
Write the number on its own, no unit after it.

Compound: O=C(c1ccccc1)N1C(=O)[C@@]2(Cc3ccccc31)N=C(c1ccc(OCCCO)cc1)O[C@H]2c1ccccc1
z-score: -3.54
--
Compound: CCCc1cc2c(n1Cc1cc(F)cc(F)c1)C(C)C1CN(C(=O)c3ccccc3)C(C)(C(=O)OC)C21 (configuration not stated)
z-score: -1.7
--
Compound: COC(=O)[C@@]1(CCC(=O)OC(C)(C)C)N=C(c2ccc(OCCCO)cc2)O[C@H]1c1ccccc1N=[N+]=[N-]
z-score: -3.6
--
Compound: CCOC(=O)C[C@H]1[C@H](OC(=O)c2ccccc2-c2ccccc2)[C@@H](NC(=O)CC(C)C)c2cc(OCCCO)ccc2N1C(=O)Cc1ccc(OC)cc1
z-score: -1.52
--
Compound: C=CCC(OC(C)=O)[C@@H]1[C@@H](N(Cc2ccc(-c3cccc(C(F)(F)F)c3)o2)C(=O)c2ccc(C)cc2)c2cc(OCCCO)ccc2N1C(=O)Cc1ccc2ccccc2c1 (some centres not stated)
z-score: -0.886
--
Compound: O=C(NCCN1CCOCC1)[C@@H]1c2ccccc2C(=O)N(C2CCCCC2)[C@H]1c1ccc(CO)cc1
z-score: -0.165

Turning now to a further record.
For the compound O=C1OCCC/C=C\[C@H]2OC34C=CCN(Cc5ccccc5)C(=O)[C@H]3N(CCCO)C(=O)[C@@H]4C12 (some centres not stated) , give its measured z-score value.
1.58

* * *

Target: Streptavidin (Streptomyces avidinii) (UniProt P22629)
Sequence (P22629 whole entry, looked up): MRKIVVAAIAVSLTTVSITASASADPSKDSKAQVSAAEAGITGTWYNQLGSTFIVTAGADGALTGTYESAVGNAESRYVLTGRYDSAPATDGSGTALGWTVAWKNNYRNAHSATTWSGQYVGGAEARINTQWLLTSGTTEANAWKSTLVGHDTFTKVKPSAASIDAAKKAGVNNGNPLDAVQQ
Assay: streptavidin binders on small-molecule microarray, primary screen, artefact control for SMM compound annotation, biophysical, 635/667 nm fluorescence (AID 1147);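 also: signal reflects streptavidin binding to arrayed compounds as a control protein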
Conditions: streptavidin binding, higher = more signal
A collection of compounds and their measured composite z-score
Answer using only a numeral; do not append any unit.

Compound: C=CC1(C(=O)OC)CC=C(C(=O)OC)CC1 (stereo unspecified)
composite z-score: 0.596

Fill in reported composite z-score for this entry: C=CCOC(=O)[C@H]1[C@@H]2C(=O)O[C@@H](c3ccccc3)[C@@H](c3ccccc3)N2[C@@H](c2ccc(OCCOC(=O)[C@H]3C[C@H]4C(=O)N[C@@H](CCCC[N+](C)(C)C)C(=O)N4[C@H]3c3ccc(O)cc3)cc2)[C@]12C(=O)Nc1ccc(I)cc12
0.134

Give composite z-score for the following compound: C=CCOC(=O)[C@H]1[C@@H]2C(=O)O[C@@H](c3ccccc3)[C@@H](c3ccccc3)N2[C@@H](c2ccc(OCCOC(=O)[C@H]3C[C@H]4C(=O)N[C@@H](CCCCNC(C)=O)C(=O)N4[C@H]3c3cccc(OCCO)c3)cc2)[C@]12C(=O)Nc1ccccc12
-0.365

Consider the compound COCCOC(=O)N1C(=O)[C@@]2(c3cc(C#Cc4ccc(OC)cc4)ccc31)[C@H](c1ccc(OCCO)cc1)N1[C@H](c3ccccc3)[C@H](c3ccccc3)OC(=O)[C@H]1[C@@H]2C(=O)N1CCN(c2ncccn2)CC1 and give its recorded composite z-score.
0.165

Determine its reported composite z-score: CCCC=C(CCC)[C@@H](NC(=O)c1cccs1)c1ccc(C(F)(F)F)cc1
0.882

Quote composite z-score reported for C=CCC(OC(C)=O)[C@@H]1[C@@H](N(Cc2ccc(-c3ccccc3)cc2)C(=O)c2cccc3ccccc23)c2cc(OCCCO)ccc2N1C(=O)c1ccc(-c2ccccc2)cc1 (stereo partly specified) please.
0.232

* * *

Experiment: splicing luciferase reporter signal modulators, primary screen, spliceosome inhibition project, cell-based, HEK293, splice +/- reporter (AID 1101);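 also: HEK293 cells carrying a splicing-competent luciferase reporter gene; test concentration not given here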
Conditions: luminescence, 24 h, higher = more signal, called active from +8 up or from −8 down
List of z-score values.
No unit in the answer, only the number.

Molecule: CC(C)C[C@@H]1NC(=O)[C@@H]2C[C@H](C(=O)NCc3ccc(F)cc3)[C@H](c3cccc(OCCO)c3)N2C1=O
z-score: -0.177

Molecule: COCCOC(=O)N1C(=O)[C@@]2(c3cc(C#CCCO)ccc31)[C@H](C(=O)N1CCCCCCC1)[C@H]1C(=O)O[C@H](c3ccccc3)[C@H](c3ccccc3)N1[C@@H]2c1ccc(OCCO)cc1
z-score: 0.713

Molecule: COC(=O)[C@@]1(Cc2ccc(OC)cc2)[C@H]2c3cc(C(=O)N(C)C)n(Cc4ccccn4)c3C[C@H]2CN1C(=O)c1ccccc1
z-score: -1.71

Molecule: Oc1ccc2cc[n+](Cc3sc4ccccc4c3Cl)cc2c1
z-score: -1.74

Molecule: CC(C)[Si]1(C(C)C)O[C@@H](c2ccccc2)c2cc(-c3ccc(-c4ccc(Cl)c(Cl)c4)o3)nc(-c3ccccc3)c21
z-score: 0.115

State its z-score: COc1cc(C(O)C2C=CC3C(=O)NC(=O)C3N2Nc2ccccn2)cc(OC)c1OC (stereo not given)
1.53

Answer with the recorded z-score for the molecule listed here: Cc1nc2cc(Br)ccc2c(=O)o1
0.502

Please report the measured z-score for COCCOC(=O)N1C(=O)[C@@]2(c3cc(C#CCC(C(=O)OC)C(=O)OC)ccc31)[C@H](C(=O)N1CCN(c3ncccn3)CC1)[C@H]1C(=O)O[C@H](c3ccccc3)[C@H](c3ccccc3)N1[C@@H]2c1ccccc1OCCO
0.476

Given the molecule COc1cc2c(cc1O)C(c1cccs1)N(C)CC2 (stereo not given) , write its reported z-score.
0.153

Give the reported value of z-score for this record: C=CCNC(=O)[C@@H]1[C@H]2C(=O)O[C@H](c3ccccc3)[C@H](c3ccccc3)N2[C@H](c2ccc(O)cc2)[C@@]12C(=O)Nc1ccc(C#CCNC(N)=O)cc12
0.788

Please list z-score recorded for the molecule CO[C@H]1O[C@H](CO)[C@@H](OC(=O)Nc2cccc(F)c2)[C@H](OC(=O)Nc2ccccc2)[C@@H]1OC(=O)Nc1ccccc1
-1.24

* * *

Test: small-molecule microarray binders of probe aLefty2, primary screen, biochemical, biotinylated probe, 635/667 nm fluorescence (AID 1094);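 also: score merges spot fluorescence near 667 nm with spot signal-to-noise ratio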
Settings: higher = more signal
Reported Property: composite z-score

Answered cases to consult:
Line Notation: O=C1C[C@@](C(=O)NCCN2CCOCC2)(c2ccc([N+](=O)[O-])cc2)[C@@H](c2ccc(CO)cc2)N1CC12CC3CC(CC(C3)C1)C2
composite z-score: 0.0211
--
Line Notation: O=C(CS)NCCCCCCNC(=O)[C@@H]1C[C@@H]2C(=O)NCC(=O)N2[C@@H]1c1cccc(OCCO)c1
composite z-score: -0.327
--
Line Notation: COC(=O)[C@]1(CCC(=O)OC(C)(C)C)N=C(c2ccc(OCCCO)cc2)O[C@@H]1c1ccccc1CN=[N+]=[N-]
composite z-score: 0.271

With those in mind, consider the next molecule.
// fetch composite z-score given entry COc1ccccc1CN1C(=O)c2ccccc2[C@@H](C(=O)NC2CC2)[C@@H]1c1ccc(CO)cc1
0.488
